system: HCC cell lines (HepG2, Hep3B, HUH-1, HUH-6, HUH-7, JHH-5, JHH-7); assay: Cell-titer glo proliferation assay, summary for the seven sensitive HCC cell lines; assay type: cell-based, human; settings: Homo sapiens
pEC50: −log10 of the molar value.
Reported Property: pEC50

So for `C[C@]1(O)C[C@@H](c2nc(-c3ccc4ccc(-c5ccccc5)nc4c3)c3c(N)nccn32)C1` , the logged pEC50 turned out to be > 6.00

----------
tested on: HLF; assay: Cell Titer-Glo proliferation assay, 72 h; format: cell-based; settings: Homo sapiens; HLF cells, 72 h OSI-906
Reported Property: EC50

Recorded EC50 (molecule C[C@]1(O)C[C@@H](c2nc(-c3ccc4ccc(-c5ccccc5)nc4c3)c3c(N)nccn32)C1 [OSI-906] ): > 10 µM

----------
Test system: JHH-1
Test: Cell Titer-Glo proliferation assay, 72 h
Type: cell-based
Details: Homo sapiens, JHH1; JHH-1 cells, erlotinib alone, determined beforehand; read-out: concentration to inhibit about 50% proliferation
Description: Two sensitive epithelial cell lines Hep3B (A), JHH-7 (B), one insensitive epithelial cell line JHH-1(C) or one insensitive mesenchymal-like cell line HLF (D) were treated serial dilution of OSI-906 in the presence of Erlotinib for 72 hours, and sensitivity to treatment was measured by proliferation assays. […] Proliferation Assay. Proliferation was assayed using Cell Titer Glo assays (Promega) and was determined 72 hours following dosing with OSI-906. […]
Reported Property: IC50 (µM)
Unit µM implied. Number only.

Summary for this molecule, C#Cc1cccc(Nc2ncnc3cc(OCCOC)c(OCCOC)cc23)c1 [Erlotinib, reference compound] : IC50 is 0.12

----------
tested on: SNU-423; assay: Cell Titer-Glo proliferation assay, 72 h; type: cell-based; settings: Homo sapiens; SNU-423 cells, 72 h OSI-906
Reported Property: EC50

Value sought: EC50, system SNU-423, item C[C@]1(O)C[C@@H](c2nc(-c3ccc4ccc(-c5ccccc5)nc4c3)c3c(N)nccn32)C1 [OSI-906] . Result: > 10 µM

FYI, the data here is from patent US20120214830A1.
